Hello, the source for this data is patent US20250099420A1, in case you need it.

System: parental HEK cells
test.method.notes: HEK parental Agonist Counterscreen Assay (non-transfected cells)
Assay type: cell-based
assay.setup: HEK Agonist Activity section
From the text: The high control for the agonist counterscreen was Forskolin not acetylcholine.
# if value of Lipophilic Efficiency (logP) reaches 2, tag met; if it stays below, tag not met

Previously resolved entries follow.
> print(dat)
                                    compound  category
 1   Cc1cc(C)c2c(cnn2CC(=O)N2CCc3ccccc3C2)c1   not met
 2  O=C(CN1C(=O)NC2(CCCc3ccccc32)C1=O)N1CCCCCC1 (stereo not drawn)       met
 3  O=C(CSc1ccc(Cl)cc1)Nc1nnc(-c2ccc(F)cc2)o1   not met
 4   O=C(Cn1ccc2ccccc21)NC1CCN(Cc2ccccc2)CC1   not met
 5  CCN(Cc1ccccc1)C(=O)Cn1cnc2sc(O)c(C)c2c1=O   not met
 6  COc1ccc(CCNC(=O)c2cncc(-c3csc4ccccc34)c2)cc1   not met
 7  CCCC(=O)C1CCC(C(=O)CC2CCC(c3ccc(C(C)O)cc3)C2=O)CC1 (stereo not drawn)       met
 8   COc1cc(C(=O)NCCn2ccc3ccccc32)cc(OC)c1OC       met
 9  Cc1ccc(CNC(=O)Cn2nc(-c3ccc(C)cc3)ccc2=O)cc1   not met
10          Cc1ccc(SCC(=O)NNC(=O)c2cccs2)cc1       met

Hello, I need to know if NC1=NC(=O)/C(=C\c2ccc(Cl)cc2Cl)S1 has measured Lipophilic Efficiency (logP) not below 2. Thanks! not met

Let us now turn to O=C(CN1C(=O)NC2(CCc3ccccc3C2)C1=O)N1CCc2ccccc2C1 (stereo not drawn) met

Let us now turn to Cc1ccc2c(c1)CCCN2CC(=O)N(C)c1c(N)n(Cc2ccccc2)c(=O)[nH]c1=O met

Let us now turn to Cc1c(Cl)c([N+](=O)[O-])nn1CC(=O)NC(C)COc1ccccc1 (stereo not drawn) met

Let us now turn to O=C1N2CN(Cc3ccccc3)CN3C(=O)N4CN(Cc5ccccc5)CN1C4C23 (stereo not drawn) met

Let us now turn to Cc1nn(CC(=O)NC2CCCc3ccccc32)c(=O)c2c1sc1ccccc12 (stereo not drawn) not met

Let us now turn to O=C(Cn1cc2c(n1)CCCCC2)NCCCc1ccccc1 not met

Let us now turn to Cc1[nH]c(=O)[nH]c(=O)c1/C=N\NC(=O)CCc1ccc(OC(C)C)cc1 met

====

target.of.assay: GPR139 (Homo sapiens, UniProt Q6DWJ6)
Sequence (Q6DWJ6 whole entry): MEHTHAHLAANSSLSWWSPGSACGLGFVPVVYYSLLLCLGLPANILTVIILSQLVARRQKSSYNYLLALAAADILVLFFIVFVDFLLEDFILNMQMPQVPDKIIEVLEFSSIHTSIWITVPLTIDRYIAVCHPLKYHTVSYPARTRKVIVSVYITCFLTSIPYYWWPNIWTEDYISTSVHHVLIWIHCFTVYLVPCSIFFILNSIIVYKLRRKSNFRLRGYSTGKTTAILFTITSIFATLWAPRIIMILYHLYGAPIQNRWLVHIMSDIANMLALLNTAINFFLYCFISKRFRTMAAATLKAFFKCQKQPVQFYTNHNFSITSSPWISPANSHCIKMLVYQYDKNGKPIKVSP
test.method.notes: GPR139 Agonist titration / agonist counterscreen assay (calcium detection, HEK-GPR139 cells)
Assay type: cell-based
Set-up: expressed in transfected cells; host or cells: HEK Aequorin cells, Maxcyte transient transfection
assay.setup: GPR139 Agonist Activity
Hi there, I'd appreciate the recorded Lipophilic Efficiency (logD) for every entry that follows.
One number for each entry.

Batch request: Lipophilic Efficiency (logD) for each of the following molecules.
1. CC1CCCC(NC(=O)CN2CCN(Cc3ccc(F)cc3Cl)C2=O)C1C (stereo not shown)
2. CCCC(=O)C1CCC(C(=O)CC2CCC(c3ccc(C(C)O)cc3)C2=O)CC1 (stereo not shown)
3. O=C(CSCc1cccc2ccccc12)Nc1c[nH]c(=O)[nH]c1=O
4. COC(=O)C(CCSC)NC(=O)C1CC(Cc2ccc3c(c2)OCO3)=NO1 (stereo not shown)

[3.13, 4.98, 4.77, 4.01]

====

Hi there, I'd appreciate the recorded EC50 for every entry that follows.
Tested on: parental HEK cells
test.method.notes: HEK parental Agonist Counterscreen Assay (non-transfected cells)
Format: cell-based
assay.setup: Homo sapiens, HEK293; HEK Agonist Activity section of Table 4 (parental HEK counterscreen)

> print(dat)
                                   molecule     target.of.assay  assay.metric  recorded.result
1  CC(NC(=O)CN1CCN(Cc2ccc(Cl)cc2)C1=O)c1ccccc1 (centres unmarked)  parental HEK cells          EC50        > 14.1 µM
2  Cc1nn(CC(=O)NC2CCCc3ccccc32)c(=O)c2c1sc1ccccc12 (centres unmarked)  parental HEK cells          EC50        > 14.1 µM
3  O=C(NCCS(=O)(=O)N1CCc2ccccc2C1)C(c1ccccc1)c1ccccc1  parental HEK cells          EC50        > 14.1 µM
4    O=C(CCc1nc2cccnc2n1Cc1cccs1)NCCc1cccs1  parental HEK cells          EC50        > 14.1 µM

Which EC50 is listed for C=C(CC1N=CC2=C1c1ccccc1CC2)NCc1ccc(C)cc1 (centres unmarked) ? > 14.1 µM

====

target.of.assay: UniProtKB Q6DWJ6
test.method.notes: GPR139 Antagonist titration assay (calcium detection, HEK-GPR139 cells, vs EC80 of S-JNJ-63533054)
assay.setup: fitted dose-response curve
# if value of GPR139 Antagonist Activity Hill Slope reaches 0.7, tag satisfied; if it stays below, tag not satisfied

Previously resolved entries follow.
> print(dat)
                                   compound   target.of.assay       category
1  CC1CCCC(NC(=O)c2cccc(NS(=O)(=O)c3ccc(Br)cc3)c2)C1C (centres unmarked)  UniProtKB Q6DWJ6  not satisfied
2  COc1ccc(OC)c(NC2=C(Cl)C(=O)N(c3ccccc3C)C2=O)c1  UniProtKB Q6DWJ6      satisfied
3  CCOC(=O)c1ccc2nc(C)c3c(c2c1)OC(C(C)(Cl)Br)C3 (centres unmarked)  UniProtKB Q6DWJ6      satisfied

Hello, I need to know if O=C(CS(=O)(=O)c1ccccc1)Nc1ccc(Oc2ccccc2)cc1 has measured GPR139 Antagonist Activity Hill Slope not below 0.7. Thanks! satisfied

Let us now turn to O=C(CCCC(=O)OCC(Cl)=C(Cl)Cl)Nc1ccccc1F satisfied

====

target.of.assay: GPR139 (Homo sapiens)
test.method.notes: GPR139 Antagonist titration assay (calcium detection, HEK-GPR139 cells, vs EC80 of S-JNJ-63533054)
assay.metric: GPR139 Antagonist Activity Ligand Efficiency
Numbers only.

Batch request: GPR139 Antagonist Activity Ligand Efficiency for each of the following molecules.
1. Cc1cc(C(=O)N/N=C/c2cn(Cc3ccccc3)c3ccccc23)n[nH]1
2. Cc1cccc(-n2cc(-c3ccccc3)nc2SCC(=O)Nc2ccccc2C)c1
3. Cc1cc(I)ccc1NC(=O)CSc1cccs1
4. CC1CCCC(NC(=O)c2cccc(NS(=O)(=O)c3ccc(Br)cc3)c2)C1C (stereo not shown)
5. CCCc1sc(N2CCN(C(=O)c3ccccc3)CC2)nc1-c1ccccc1
6. Cc1ccc(-n2cc(-c3ccccc3)nc2SCC(=O)Nc2ccc(F)cc2)cc1
7. COc1ccc(C2=NN(C3CCCCCC3)C(=O)[C@@H]3CC=CC[C@@H]23)cc1OCCCCOc1ccc(-c2nn[nH]n2)cc1
8. Cc1ccc(-c2cn(-c3ccccc3)c(SCC(=O)Nc3ccccc3C)n2)cc1

1: 0.28; 2: 0.28; 3: 0.42; 4: 0.26; 5: 0.25; 6: 0.25; 7: 0.18; 8: 0.24

====

Hi there, I'd appreciate the recorded Averaged Max % Response (±St. Dev.) for every entry that follows.
target.of.assay: GPR139 (Homo sapiens, UniProt Q6DWJ6)
test.method.notes: GPR139 Agonist titration / agonist counterscreen assay (calcium detection, HEK-GPR139 cells)
Format: cell-based
Design: expressed in transfected cells; host or cells: HEK Aequorin cells, Maxcyte transient transfection
assay.setup: GPR139 Agonist Activity; activity relative to known control
Give bare numbers, in %.

Consider the following illustrative entries.
> print(dat)
                                   compound                        target.of.assay                         assay.metric  recorded.result
1  CCSc1nc2sccn2c(=O)c1C(=O)NC(C)c1ccccc1 (stereo not drawn)  GPR139 (Homo sapiens, UniProt Q6DWJ6)  Averaged Max % Response (±St. Dev.)            93.30
2  COc1ccc2cc(CCNC(=O)/C=C\c3ccc4c(c3)OCO4)c(=O)[nH]c2c1  GPR139 (Homo sapiens, UniProt Q6DWJ6)  Averaged Max % Response (±St. Dev.)            80.01
3  Cc1ccc(C)c(C(=O)CCC(=O)NNC(=O)c2cc(C)oc2C)c1  GPR139 (Homo sapiens, UniProt Q6DWJ6)  Averaged Max % Response (±St. Dev.)           100.05
4  CC(Oc1ccc(Cl)cc1Cl)C(=O)NNC(=O)c1ccc(F)cc1 (stereo not drawn)  GPR139 (Homo sapiens, UniProt Q6DWJ6)  Averaged Max % Response (±St. Dev.)           113.17
5  Cc1cccc(CNC(=O)Nc2ccc(-c3cn[nH]c3)cc2)c1.O=C(O)C(F)(F)F  GPR139 (Homo sapiens, UniProt Q6DWJ6)  Averaged Max % Response (±St. Dev.)            86.84

Batch request: Averaged Max % Response (±St. Dev.) for each of the following compounds.
1. COc1ccc(C(C)N2CC34C=CC(O3)C(C(=O)OCC(C)C)C4C2=O)cc1 (stereo not drawn)
2. CC(C)C(CC(=O)Cc1cccc2ccccc12)C(=O)Nc1cccc(C#N)c1 (stereo not drawn)
3. COc1ccc(CCCC(=O)c2cccc(-c3ccc(OC)cc3)c2)cc1
4. Cc1cc(C)c(/C=C2/NC(=N)NC2=O)c(C)c1

[93.61, 133.92, 106.36, 76.44]
